MEASURED_TARGET: T1, cynomolgus SIRPβ1v3 (XP_005568593) extracellular domain + His-tag (cynomolgus monkey)
T1 construct: SPR analyte; also called Cyno SIRPβ1v3 XP_005568593; cynoSIRPβ1v3; not shown: His-tag
T1 chain: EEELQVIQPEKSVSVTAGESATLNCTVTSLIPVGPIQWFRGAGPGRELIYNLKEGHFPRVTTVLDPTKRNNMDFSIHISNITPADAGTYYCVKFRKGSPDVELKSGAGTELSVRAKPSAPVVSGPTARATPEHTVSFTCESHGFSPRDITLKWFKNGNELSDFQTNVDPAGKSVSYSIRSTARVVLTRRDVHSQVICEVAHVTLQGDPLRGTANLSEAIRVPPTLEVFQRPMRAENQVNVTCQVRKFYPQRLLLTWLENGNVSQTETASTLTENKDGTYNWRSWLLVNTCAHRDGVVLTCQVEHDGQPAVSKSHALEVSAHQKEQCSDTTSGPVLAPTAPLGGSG
PROTOCOL_TEXT: SPR, antibody captured, ECD-His analyte
Experimental: The binding affinity of anti-SIRPα antibodies to the various SIRPα analytes is determined by surface plasmon resonance (SPR) using a ProteOn XPR36 (Bio-Rad). The running buffer for this experiment and all dilutions (except where stated) are done in 1×HBS-EP+. […] The sensorchip is deactivated with 1M ethanolamine HCl for 420 sec at a flowrate of 10 μl/min. The analyte is injected over the captured antibody for 300 sec at a flowrate of 30 μl/min. The dissociation is done for 600 sec. […]

[
  {
    "BINDER": "Antibody E18 (antibody, human IgG1, kappa, L234A L235A, V domains shown) VH: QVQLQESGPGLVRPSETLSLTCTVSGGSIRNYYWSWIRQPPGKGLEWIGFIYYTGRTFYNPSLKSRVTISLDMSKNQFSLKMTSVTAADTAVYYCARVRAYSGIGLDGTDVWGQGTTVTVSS VL: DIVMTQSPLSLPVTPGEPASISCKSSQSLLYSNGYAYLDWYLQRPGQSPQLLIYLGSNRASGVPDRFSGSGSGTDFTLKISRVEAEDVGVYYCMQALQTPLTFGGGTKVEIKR",
    "Kd (nM)": 27.8
  },
  {
    "BINDER": "Antibody E13 (antibody, human IgG1, kappa, L234A L235A, V domains shown) VH: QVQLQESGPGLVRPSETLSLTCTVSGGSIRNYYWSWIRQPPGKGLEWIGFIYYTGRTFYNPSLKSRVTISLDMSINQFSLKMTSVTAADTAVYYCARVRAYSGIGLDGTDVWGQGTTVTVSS VL: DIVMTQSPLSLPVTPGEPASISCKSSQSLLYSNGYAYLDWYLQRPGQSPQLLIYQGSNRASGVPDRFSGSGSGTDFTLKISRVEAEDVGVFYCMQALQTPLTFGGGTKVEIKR",
    "Kd (nM)": 20.5
  },
  {
    "BINDER": "Antibody E20 (antibody, human IgG1, kappa, L234A L235A, V domains shown) VH: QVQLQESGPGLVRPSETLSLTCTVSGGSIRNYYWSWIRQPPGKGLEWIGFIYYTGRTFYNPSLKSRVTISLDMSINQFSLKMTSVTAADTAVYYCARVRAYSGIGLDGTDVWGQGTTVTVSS VL: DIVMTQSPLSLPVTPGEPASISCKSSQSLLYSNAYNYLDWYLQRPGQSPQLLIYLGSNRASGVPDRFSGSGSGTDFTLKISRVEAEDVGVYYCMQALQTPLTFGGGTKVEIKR",
    "Kd (nM)": 57.4
  },
  {
    "BINDER": "Antibody E11 (antibody, human IgG1, kappa, L234A L235A, V domains shown) VH: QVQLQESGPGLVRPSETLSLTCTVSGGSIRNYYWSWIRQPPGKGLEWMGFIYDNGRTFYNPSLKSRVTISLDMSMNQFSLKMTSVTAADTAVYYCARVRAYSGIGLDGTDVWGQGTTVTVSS VL: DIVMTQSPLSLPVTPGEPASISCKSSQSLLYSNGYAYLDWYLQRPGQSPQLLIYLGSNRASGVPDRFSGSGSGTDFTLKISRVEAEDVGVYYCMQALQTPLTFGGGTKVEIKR",
    "Kd (nM)": 13.2
  },
  {
    "BINDER": "Antibody E3 (antibody, human IgG1, kappa, L234A L235A, V domains shown) VH: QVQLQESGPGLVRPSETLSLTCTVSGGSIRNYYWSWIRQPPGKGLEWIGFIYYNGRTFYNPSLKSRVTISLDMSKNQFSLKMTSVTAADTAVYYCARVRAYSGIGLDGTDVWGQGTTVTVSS VL: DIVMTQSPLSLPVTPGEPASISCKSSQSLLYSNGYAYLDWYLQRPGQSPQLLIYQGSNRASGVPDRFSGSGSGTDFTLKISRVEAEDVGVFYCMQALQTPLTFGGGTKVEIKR",
    "Kd (nM)": 10.7
  }
]
